Test system: NCI-H226 lung
Test: NCI-60 one-dose screen, 48 h (100 = growth as untreated, 0 = no growth, -100 = all killed)
Details: 10 µM unless noted
This is part of a sample that, as a whole, favours compounds with a hit. Of some 83,000 tested, about 20% had one in any assay.
Listed next: entries and their corresponding growth.
State just the number; it will be interpreted in %.

COMPOUND	STUDY TARGET	MEASURED RESULT
COc1ccc2c(c1)OC1=C(C(=O)OC1)C2c1cc(OC)c2c(c1)OCO2 (stereo unspecified)	NCI-H226 lung	21.3
O=C(Nc1cccc(-n2cc(-c3ccncc3)c(-c3ccc(Cl)c(O)c3)n2)c1)Nc1ccc(Cl)c(Cl)c1	NCI-H226 lung	24.7
C=C1CCC2C(C)(CO)C(O)CCC2(C)C1CC(NCc1ccccc1)C1=CCOC1=O (stereo unspecified)	NCI-H226 lung	100
Nc1ccc(C(=O)CSc2nc3ccccc3[nH]2)cc1	NCI-H226 lung	108
CC(=O)Oc1cccc(S(=O)(=O)n2cc(C(=O)C(=O)Nc3ccncc3)c3ccccc32)c1	NCI-H226 lung	73.6

[in] Which growth is listed for C=C1C(=O)O[C@H]2[C@H]1CC/C(COC(=O)NCc1ccccc1OC)=C\CC[C@@]1(C)O[C@@H]21 ?
[out] 55.6

[in] Field request: growth | item: Nc1cccc(-c2nc3sccn3c2-c2ccnc(NCCCNS(=O)(=O)c3cccc4ccccc34)n2)c1
[out] 29.8

[in] Can you look up the measured growth of Cc1cccc(/C=N/Nc2cc(C)c3cccc(C)c3n2)n1 for me?
[out] 86.9

[in] Given O=C1C2(c3ccccc3)C(c3ccccc3)=C(c3ccccc3)C1(c1ccccc1)C1CC=CC12 (stereo unspecified) , state its recorded growth.
[out] 74
